- Tested on: MRSA ATCC 43300

[
  {
    "COMPOUND": "CN(CC[C@H](N)CC(=O)N[C@H]1C=C[C@H](n2ccc(N)nc2=O)O[C@@H]1C(=O)NCCc1ccccc1)C(=N)N [Blastimidine P1, blasticidin S phenethylamide]",
    "SYSTEM_NAME": "MRSA ATCC 43300",
    "MIC": "32 µg/mL"
  },
  {
    "COMPOUND": "CNc1ccc(C(=O)Nc2ccn([C@H]3C=C[C@H](NC(=O)C[C@@H](N)CCN(C)C(=N)N)[C@@H](C(=O)O)O3)c(=O)n2)cc1",
    "SYSTEM_NAME": "MRSA ATCC 43300",
    "MIC": "> 128 µg/mL"
  },
  {
    "COMPOUND": "CNc1ccc(C(=O)Nc2ccn([C@H]3C=C[C@H](NC(=O)C[C@@H](N)CCN(C)C(=N)N)[C@@H](C(=O)NCCc4ccccc4)O3)c(=O)n2)cc1",
    "SYSTEM_NAME": "MRSA ATCC 43300",
    "MIC": "64 to 128 µg/mL"
  },
  {
    "COMPOUND": "CNc1ccc(C(=O)Nc2ccn([C@H]3C=C[C@H](NC(=O)C[C@@H](N)CCN(C)C(=N)N)[C@@H](C(N)=O)O3)c(=O)n2)cc1",
    "SYSTEM_NAME": "MRSA ATCC 43300",
    "MIC": "16 µg/mL"
  },
  {
    "COMPOUND": "CN(CC[C@H](N)CC(=O)N[C@H]1C=C[C@H](n2ccc(NC(=O)c3ccc(N)cc3)nc2=O)O[C@@H]1C(N)=O)C(=N)N",
    "SYSTEM_NAME": "MRSA ATCC 43300",
    "MIC": "16 µg/mL"
  },
  {
    "COMPOUND": "COC(=O)[C@H]1O[C@@H](n2ccc(NC(=O)c3ccc(NC(C)=O)cc3)nc2=O)C=C[C@@H]1NC(=O)C[C@@H](N)CCN(C)C(=N)N",
    "SYSTEM_NAME": "MRSA ATCC 43300",
    "MIC": "32 µg/mL"
  },
  {
    "COMPOUND": "CC(=O)Nc1ccc(C(=O)Nc2ccn([C@H]3C=C[C@H](NC(=O)C[C@@H](N)CCN(C)C(=N)N)[C@@H](C(N)=O)O3)c(=O)n2)cc1",
    "SYSTEM_NAME": "MRSA ATCC 43300",
    "MIC": "64 µg/mL"
  },
  {
    "COMPOUND": "CN(CC[C@H](N)CC(=O)N[C@H]1C=C[C@H](n2ccc(NC(=O)c3ccc(N)cc3)nc2=O)O[C@@H]1C(=O)NCCc1ccccc1)C(=N)N [Blastimidine P2]",
    "SYSTEM_NAME": "MRSA ATCC 43300",
    "MIC": "64 µg/mL"
  },
  {
    "COMPOUND": "CC(=O)Nc1ccc(C(=O)Nc2ccn([C@H]3C=C[C@H](NC(=O)C[C@@H](N)CCN(C)C(=N)N)[C@@H](C(=O)NCCc4ccccc4)O3)c(=O)n2)cc1",
    "SYSTEM_NAME": "MRSA ATCC 43300",
    "MIC": "128 µg/mL"
  },
  {
    "COMPOUND": "COC(=O)[C@H]1O[C@@H](n2ccc(NC(=O)c3ccc(NC(=O)[C@@](C)(N)CO)cc3)nc2=O)C=C[C@@H]1NC(=O)C[C@@H](N)CCN(C)C(=N)N",
    "SYSTEM_NAME": "MRSA ATCC 43300",
    "MIC": "64 µg/mL"
  },
  {
    "COMPOUND": "COC(=O)[C@H]1O[C@@H](n2ccc(NC(=O)c3ccc(N)cc3)nc2=O)C=C[C@@H]1NC(=O)C[C@@H](N)CCN(C)C(=N)N",
    "SYSTEM_NAME": "MRSA ATCC 43300",
    "MIC": "16 µg/mL"
  }
]

---

In this section we review reported MIC values for a set of compounds.
- Test system: Methicillin resistant Staphylococcus epidermidis (MRSE) ATCC 35984 NRS101
- ASSAY_TEXT: Antibacterial MIC assay, serial dilution
- Assay type: cell-based
- RUN_PARAMETERS: Staphylococcus epidermidis, read-out: MIC Methicillin resistant Staphylococcus epidermidis (MRSE) ATCC 35984 NRS101

[
  {
    "COMPOUND": "CC(=O)Nc1ccc(C(=O)Nc2ccn([C@H]3C=C[C@H](NC(=O)C[C@@H](N)CCN(C)C(=N)N)[C@@H](C(=O)NCCc4ccccc4)O3)c(=O)n2)cc1",
    "SYSTEM_NAME": "Methicillin resistant Staphylococcus epidermidis (MRSE) ATCC 35984 NRS101",
    "COMPARISON_SYMBOL": "=",
    "MIC / µg/mL": 16
  },
  {
    "COMPOUND": "CN(CC[C@H](N)CC(=O)N[C@H]1C=C[C@H](n2ccc(N)nc2=O)O[C@@H]1C(=O)NCCc1ccccc1)C(=N)N [Blastimidine P1, blasticidin S phenethylamide]",
    "SYSTEM_NAME": "Methicillin resistant Staphylococcus epidermidis (MRSE) ATCC 35984 NRS101",
    "COMPARISON_SYMBOL": "=",
    "MIC / µg/mL": 4
  },
  {
    "COMPOUND": "CNc1ccc(C(=O)Nc2ccn([C@H]3C=C[C@H](NC(=O)C[C@@H](N)CCN(C)C(=N)N)[C@@H](C(=O)O)O3)c(=O)n2)cc1",
    "SYSTEM_NAME": "Methicillin resistant Staphylococcus epidermidis (MRSE) ATCC 35984 NRS101",
    "COMPARISON_SYMBOL": ">",
    "MIC / µg/mL": 128
  },
  {
    "COMPOUND": "CN(CC[C@H](N)CC(=O)N[C@H]1C=C[C@H](n2ccc(NC(=O)c3ccc(NC(=O)[C@@](C)(N)CO)cc3)nc2=O)O[C@@H]1C(=O)O)C(=N)N",
    "SYSTEM_NAME": "Methicillin resistant Staphylococcus epidermidis (MRSE) ATCC 35984 NRS101",
    "COMPARISON_SYMBOL": ">",
    "MIC / µg/mL": 128
  },
  {
    "COMPOUND": "CN(CC[C@H](N)CC(=O)N[C@H]1C=C[C@H](n2ccc(N)nc2=O)O[C@@H]1C(=O)O)C(=N)N",
    "SYSTEM_NAME": "Methicillin resistant Staphylococcus epidermidis (MRSE) ATCC 35984 NRS101",
    "COMPARISON_SYMBOL": ">",
    "MIC / µg/mL": 128
  },
  {
    "COMPOUND": "CN(CC[C@H](N)CC(=O)N[C@H]1C=C[C@H](n2ccc(NC(=O)c3ccc(N)cc3)nc2=O)O[C@@H]1C(N)=O)C(=N)N",
    "SYSTEM_NAME": "Methicillin resistant Staphylococcus epidermidis (MRSE) ATCC 35984 NRS101",
    "COMPARISON_SYMBOL": "=",
    "MIC / µg/mL": 32
  },
  {
    "COMPOUND": "CNc1ccc(C(=O)Nc2ccn([C@H]3C=C[C@H](NC(=O)C[C@@H](N)CCN(C)C(=N)N)[C@@H](C(=O)OC)O3)c(=O)n2)cc1",
    "SYSTEM_NAME": "Methicillin resistant Staphylococcus epidermidis (MRSE) ATCC 35984 NRS101",
    "COMPARISON_SYMBOL": "=",
    "MIC / µg/mL": 8
  },
  {
    "COMPOUND": "COC(=O)[C@H]1O[C@@H](n2ccc(N)nc2=O)C=C[C@@H]1NC(=O)C[C@@H](N)CCN(C)C(=N)N",
    "SYSTEM_NAME": "Methicillin resistant Staphylococcus epidermidis (MRSE) ATCC 35984 NRS101",
    "COMPARISON_SYMBOL": "=",
    "MIC / µg/mL": 16
  },
  {
    "COMPOUND": "CN(CC[C@H](N)CC(=O)N[C@H]1C=C[C@H](n2ccc(NC(=O)c3ccc(NC(=O)[C@@](C)(N)CO)cc3)nc2=O)O[C@@H]1C(=O)NCCc1ccccc1)C(=N)N",
    "SYSTEM_NAME": "Methicillin resistant Staphylococcus epidermidis (MRSE) ATCC 35984 NRS101",
    "COMPARISON_SYMBOL": "=",
    "MIC / µg/mL": 16
  },
  {
    "COMPOUND": "CN(CC[C@H](N)CC(=O)N[C@H]1C=C[C@H](n2ccc(NC(=O)c3ccc(N)cc3)nc2=O)O[C@@H]1C(=O)O)C(=N)N",
    "SYSTEM_NAME": "Methicillin resistant Staphylococcus epidermidis (MRSE) ATCC 35984 NRS101",
    "COMPARISON_SYMBOL": ">",
    "MIC / µg/mL": 128
  },
  {
    "COMPOUND": "CNc1ccc(C(=O)Nc2ccn([C@H]3C=C[C@H](NC(=O)C[C@@H](N)CCN(C)C(=N)N)[C@@H](C(N)=O)O3)c(=O)n2)cc1",
    "SYSTEM_NAME": "Methicillin resistant Staphylococcus epidermidis (MRSE) ATCC 35984 NRS101",
    "COMPARISON_SYMBOL": "=",
    "MIC / µg/mL": 16
  }
]

Data origin, for the record: paper PMC12856912
